- subject.of.test: HDAC2 Human recombinant C-terminal FLAG-tag (Homo sapiens)
- Construct: FLAG (C); purchased BPS Bioscience 50052
- Sequence (Q92769 whole entry): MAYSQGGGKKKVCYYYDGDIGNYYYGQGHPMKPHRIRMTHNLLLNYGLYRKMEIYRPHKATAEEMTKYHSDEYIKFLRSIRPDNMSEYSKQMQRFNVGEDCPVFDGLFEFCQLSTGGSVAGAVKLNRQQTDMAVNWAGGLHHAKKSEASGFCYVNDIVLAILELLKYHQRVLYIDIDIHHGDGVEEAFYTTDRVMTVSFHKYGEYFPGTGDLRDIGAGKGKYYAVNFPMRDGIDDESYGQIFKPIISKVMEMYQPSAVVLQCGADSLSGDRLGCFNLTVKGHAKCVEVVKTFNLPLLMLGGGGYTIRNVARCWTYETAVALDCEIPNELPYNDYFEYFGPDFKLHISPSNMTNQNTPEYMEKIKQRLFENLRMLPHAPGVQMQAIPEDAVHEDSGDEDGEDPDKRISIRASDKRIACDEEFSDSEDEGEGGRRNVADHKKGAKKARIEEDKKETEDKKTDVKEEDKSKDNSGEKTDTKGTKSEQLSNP
- test.method.notes: Measurement of HDAC2 enzyme inhibitory activity (HTRF)
- Assay type: biochemical
- condition.description: recombinant HDAC2, H3K9ac peptide, 3 hours room temperature; read-out: HDAC2 IC50
experimental.readout: IC50 (nM)

Known IC50 results, listed for orientation:
{"columns": ["molecule", "experimental.readout", "obs.value"],
 "data": [
  ["CC(C)Nc1cnc(C(=O)Nc2cc(-n3ccc(F)c3)ccc2N)cn1 [Compound I-301]", "IC50", 310],
  ["Cn1cc(-c2ccc(C(=O)Nc3cc(-c4ccc(F)nc4)ccc3N)nc2)cn1 [Compound I-033]", "IC50", 88],
  ["Nc1ccc(-c2ccccc2)nc1NC(=O)c1ccc2c(n1)OCC(=O)N2 [Compound I-233]", "IC50", 280]
]}

A: Cn1cc(-c2ccc(C(=O)Nc3cc(-c4ccco4)ccc3N)nc2)cn1 [Compound I-005]
B: Nc1ccc(-c2ccc(F)nc2)cc1NC(=O)c1cnc(NC2CCOCC2)cn1 [Compound I-286]
C: Cn1cc(-c2ccc(N)c(NC(=O)c3cnc(NC4CCOCC4)cn3)c2)cn1 [Compound I-290]
Lookup: Give the ascending ranking of the items by reported IC50. API: response body holds the labels in the requested order.
Found: B, C, A

P: Cn1cc(-c2ccc(C(=O)Nc3nc(-c4cccs4)ccc3N)nc2)nn1 [Compound I-034]
Q: C[C@H](F)COc1cnc(C(=O)Nc2cc(-c3ccc(F)nc3)ccc2N)cn1 (racemic) [Compound I-125]
Lookup: Identify the entry with the larger IC50. Options: P and Q // output: label of the selected item
Found: P
(P: 280 nM, Q: 180 nM)

Data origin, for the record: patent US20230119479A1
